Data provenance is ChEMBL document CHEMBL1157539.

- Tested on: HepG2
- Method notes: GSK_TCMDC: Percent inhibition of human HepG2 cell line. Test compounds present at 10uM.
- Type: functional
Inhibition values for the molecules below.

Molecule: Cc1[nH]c(C)c(-c2ccc(C#Cc3ccc(F)cc3F)cc2)c(=O)c1Br
Inhibition / %: 11

Molecule: CC1(C)N=C(N)N=C(N)N1OCCCOc1cc(Cl)c(Cl)cc1Cl.Cl
Inhibition / %: 60

Molecule: CC(CNC(=O)[C@H]1CNCCN1C(=O)CCCc1ccccc1)c1ccccc1.O=C(O)C(F)(F)F (stereo partly specified)
Inhibition / %: 12

Molecule: O=C(Nc1ccc2c(c1)CCC2)c1cccc(N2CCN(c3ccncc3)CC2)c1.O=C(O)C(F)(F)F
Inhibition / %: 35

Molecule: Cc1cc(N2CCCC2)nc(Nc2ccc(NC(=O)Nc3ccccc3)cc2)n1
Inhibition / %: 35

Molecule: COc1ccc2sc(CNCCCNc3cc(=O)c4ccccc4[nH]3)c(Cl)c2c1.Cl
Inhibition / %: 1

Molecule: CN1CCC(c2nc(N)no2)C1.O=C(O)C(=O)O (stereo unspecified)
Inhibition / %: 15

Molecule: O=C(Cc1ccc(Cl)cc1)NC1CCN(c2ccnc3cc(Cl)ccc23)C1.O=C(O)C(F)(F)F (stereo unspecified)
Inhibition / %: 13

Molecule: CCN1CCC(N(Cc2ccc(-c3ccc(C(F)(F)F)cc3)cc2)C(=O)Cn2nc(C)c(=O)cc2SCc2ccc(F)cc2)CC1.O=C(O)C(O)C(O)C(=O)O
Inhibition / %: 77

Molecule: CCOc1cc(C(=O)Nc2cccnc2)cc(Br)c1OCCC(C)C
Inhibition / %: 4

Molecule: O=C(O)C(F)(F)F.OCCN1CCN(Cc2cccc(-c3ccc(-c4nc5cc(C(F)(F)F)ccc5[nH]4)s3)c2)CC1
Inhibition / %: 42

* * *

Measured Inhibition by item
- Test system: HepG2
- Method notes: GSK_TCMDC: Percent inhibition of human HepG2 cell line. Test compounds present at 10uM.
- Assay type: functional

Structure as smiles: COc1cc(C)nc2ccc(NC(=O)Nc3ccc4nc(C)cc(OC)c4c3)cc12
Inhibition: 79%
--
Structure as smiles: Nc1nc(N)c2c(Cc3ccccc3)cccc2n1
Inhibition: 68%
--
Structure as smiles: CN1CCC(N(Cc2ccc(-c3ccc(C(F)(F)F)cc3)cc2)C(=O)Cn2cc(Cc3cnn(C)c3)c(=O)nc2SCc2cccc(F)c2F)CC1.O=C(O)C(O)C(O)C(=O)O
Inhibition: 68%
--
Structure as smiles: Cc1cc(N[C@@H](CC(C)C)C(=O)NCCc2ccccc2)nc(Nc2ccccc2)n1.O=C(O)C(F)(F)F
Inhibition: 1%
--
Structure as smiles: Cc1cc(N[C@@H](Cc2ccccc2)C(=O)NCc2cccc(F)c2)nc(NCCOc2ccccc2)n1.O=C(O)C(F)(F)F
Inhibition: 0%

* * *

- Test system: Plasmodium falciparum
- Method notes: GSK_TCMDC: Inhibition of Plasmodium falciparum Dd2 in whole red blood cells, using parasite LDH activity as an index of growth. Test compounds present at 2uM
- Format: functional
In this section we review reported Inhibition values for a set of compounds.
Endpoint: Inhibition (%)

Compound: CNC(=O)c1ccccc1Nc1nc(Nc2cccnc2)ncc1C.Cl
Unit spec: %
Numeric value: 90
//
Compound: CN1CCC(NCc2ccc(-c3ccc(C(F)(F)F)cc3)cc2)CC1
Unit spec: %
Numeric value: 71
//
Compound: CC(ON1C(N)=NC(N)=NC1(C)C)c1ccccc1 (stereo unspecified)
Unit spec: %
Numeric value: 58
//
Compound: O=C(Nc1cccc(-c2cccc(-c3nc4cc(C(F)(F)F)ccc4[nH]3)c2)c1)c1csnn1
Unit spec: %
Numeric value: 37
//
Compound: O=C(/C=C/c1ccccc1Cl)NC1CCC(CN2CCC(c3c[nH]c4ccncc34)CC2)CC1 (stereo unspecified)
Unit spec: %
Numeric value: 100
//
Compound: CCCc1cc(Cc2cnc(N)nc2N)cc(CC)c1O.Cl
Unit spec: %
Numeric value: 0
